method: Tmax in nude mouse at 10 mg/kg, po by HPLC-MS/MS analysis
Type: ADME, organism-based
test.parameters: in vivo
observed.property: Tmax

Quick one: Tmax for `C[C@H](NC(=O)c1ccccc1)c1ccc(NC(=O)[C@H]2C[C@@H]2c2cccnc2)cc1` ? 30 min

###

method: Half life in nude mouse at 1 mg/kg, iv by HPLC-MS/MS analysis
Assay type: ADME, organism-based
test.parameters: in vivo
observed.property: half-life (h)
Answers are plain numbers, in h.

Report half-life for `C[C@H](NC(=O)c1ccccc1)c1ccc(NC(=O)[C@H]2C[C@@H]2c2cccnc2)cc1` please. 1.5

###

method: Cmax in nude mouse at 10 mg/kg, po by HPLC-MS/MS analysis
Type: ADME, organism-based
Set-up: dose 10 mg/kg, route oral
test.parameters: in vivo
observed.property: Cmax (µM)
Give bare numbers, in µM.

Reported Cmax for `C[C@H](NC(=O)c1ccccc1)c1ccc(NC(=O)[C@H]2C[C@@H]2c2cccnc2)cc1` : what is it? 12.7

###

method: AUC in nude mouse at 15 mg/kg, po by HPLC-MS/MS analysis
Format: ADME, organism-based
test.parameters: in vivo
observed.property: AUC (µM·h)
Give bare numbers, in µM·h.

Given the molecule `O=C(NCc1ccc(S(=O)(=O)c2cccc(Cl)c2)cc1)c1cc2cnccc2[nH]1` , what is its reported AUC? 9.2

###

method: AUC in nude mouse at 10 mg/kg, po by HPLC-MS/MS analysis
Type: ADME, organism-based
test.parameters: in vivo
observed.property: AUC (µM·h)
Numbers only, in µM·h.

What value of measured AUC is listed for `C[C@H](NC(=O)c1ccccc1)c1ccc(NC(=O)[C@H]2C[C@@H]2c2cccnc2)cc1` ? 19.2

###

method: Half life in mouse microsomes
Type: ADME, Microsome
Give measured half-life for each item. Keep answers brief.
Quick note: number first, unit second.

Items follow; give half-life for each.
1. CCC(=O)N[C@@H](C)c1ccc(NC(=O)[C@H]2C[C@@H]2c2cccnc2)cc1
2. C[C@H](NC(=O)c1ccc(CN2CCOCC2)cc1)c1ccc(NC(=O)[C@H]2C[C@@H]2c2cccnc2)cc1

35 h
7.67 h

###

method: Clearance in mouse liver microsomes
Type: ADME, microsome
test.parameters: read-out: CLH
Label fulfilled when microsomal CLint is at or above 40 µL/min/mg; otherwise label not fulfilled.

Decide: is the reported value of microsomal CLint for `C[C@H](NC(=O)c1ccccn1)c1ccc(NC(=O)[C@H]2C[C@@H]2c2cccnc2)cc1` equal to or greater than 40 µL/min/mg? not fulfilled

Could you tell me if the measured microsomal CLint of `COCC(=O)N[C@@H](C)c1ccc(NC(=O)[C@H]2C[C@@H]2c2cccnc2)cc1` reaches 40 µL/min/mg or more? fulfilled

Please check the record `C[C@H](NC(=O)c1ccccc1)c1ccc(NC(=O)[C@H]2C[C@@H]2c2cccnc2)cc1` and state if its microsomal CLint is at or above 40 µL/min/mg. fulfilled

Record `C[C@H](NC(=O)C1CCOCC1)c1ccc(NC(=O)[C@H]2C[C@@H]2c2cccnc2)cc1` ; criterion: microsomal CLint no lower than 40 µL/min/mg. Met? not fulfilled

Please tell me: is the compound `C[C@H](NC(=O)c1ccc(F)cc1)c1ccc(NC(=O)[C@H]2C[C@@H]2c2cccnc2)cc1` at or over 40 µL/min/mg in terms of microsomal CLint? not fulfilled

Please tell me: is the compound `C[C@H](NC(=O)CC(F)(F)F)c1ccc(NC(=O)[C@H]2C[C@@H]2c2cccnc2)cc1` at or over 40 µL/min/mg in terms of microsomal CLint? fulfilled

Form field: microsomal CLint at least 40 µL/min/mg? Entry: `C[C@H](NC(=O)c1ccc(C#N)cc1)c1ccc(NC(=O)[C@H]2C[C@@H]2c2cccnc2)cc1` fulfilled

For this compound, is measured microsomal CLint 40 µL/min/mg or higher? `C[C@H](NC(=O)c1ncccn1)c1ccc(NC(=O)[C@H]2C[C@@H]2c2cccnc2)cc1` not fulfilled

Record `C[C@H](NC(=O)[C@@H]1CCCN1C)c1ccc(NC(=O)[C@H]2C[C@@H]2c2cccnc2)cc1` ; criterion: microsomal CLint no lower than 40 µL/min/mg. Met? fulfilled

###

method: Permeability of the compound by PAMPA
Type: ADME
observed.property: permeability

// worked examples, permeability included
# smiles.str, permeability
data = [
    ("C[C@H](NC(=O)c1ccccc1)c1ccc(NC(=O)[C@H]2C[C@@H]2c2cccnc2)cc1", "Permeable"),
    ("C[C@H](NC(=O)c1ccc(C#N)cc1)c1ccc(NC(=O)[C@H]2C[C@@H]2c2cccnc2)cc1", "Impermeable"),
    ("C[C@H](NC(=O)c1ncccn1)c1ccc(NC(=O)[C@H]2C[C@@H]2c2cccnc2)cc1", "Permeable"),
    ("C[C@H](NC(=O)c1ccc(CN2CCOCC2)cc1)c1ccc(NC(=O)[C@H]2C[C@@H]2c2cccnc2)cc1", "Impermeable"),
    ("C[C@H](NC(=O)[C@@H]1CCCN1C)c1ccc(NC(=O)[C@H]2C[C@@H]2c2cccnc2)cc1", "Permeable"),
]

Please look at the items below and tell me permeability for each one, in order.
1. C[C@H](NC(=O)C1CCOCC1)c1ccc(NC(=O)[C@H]2C[C@@H]2c2cccnc2)cc1
2. C[C@H](NC(=O)c1ccccn1)c1ccc(NC(=O)[C@H]2C[C@@H]2c2cccnc2)cc1
3. COCC(=O)N[C@@H](C)c1ccc(NC(=O)[C@H]2C[C@@H]2c2cccnc2)cc1

1. Impermeable
2. Permeable
3. Impermeable

###

method: AUC in nude mouse at 1 mg/kg, iv by HPLC-MS/MS analysis
Type: ADME, organism-based
test.parameters: in vivo
observed.property: AUC (µM·h)
Numbers only, in µM·h.

Looking for the measured AUC of `C[C@H](NC(=O)c1ccccc1)c1ccc(NC(=O)[C@H]2C[C@@H]2c2cccnc2)cc1` , can you help? 6.18

###

method: Permeability of the compound by PAMPA
Format: ADME

# smiles.str, permeability
records = [
    ("CCC(=O)N[C@@H](C)c1ccc(NC(=O)[C@H]2C[C@@H]2c2cccnc2)cc1", "Impermeable"),
    ("C[C@H](NC(=O)CC(F)(F)F)c1ccc(NC(=O)[C@H]2C[C@@H]2c2cccnc2)cc1", "Impermeable"),
]

###

method: Volume of distribution at steady state in nude mouse at 1 mg/kg, iv by HPLC-MS/MS analysis
Type: ADME, organism-based
test.parameters: in vivo, read-out: Vdss
observed.property: Vd (L/kg)
Give bare numbers, in L/kg.

So what's the measured Vd for this one? `C[C@H](NC(=O)c1ccccc1)c1ccc(NC(=O)[C@H]2C[C@@H]2c2cccnc2)cc1` 0.5
